assay: method code SF-AS, from DOI: 10.1021/es00166a009, PMID: 22195514

structure smiles	logP
Cc1ccc([N+](=O)[O-])c(O)c1	2.31

---

test: method code SF-AS, from DOI: 10.1021/es00166a009, PMID: 22195514; conditions: pH 1.5
Category key, based on recorded logD: lo (below 2), med (2 to below 3), hi (3 or more)

molecule	label class
O=[N+]([O-])c1cc(-c2ccccc2)ccc1O	hi
Cc1ccc(O)c([N+](=O)[O-])c1	med
O=[N+]([O-])c1cc(C(F)(F)F)ccc1O	med
CCC(C)c1ccc(O)c([N+](=O)[O-])c1 (centres undefined)	hi
O=Cc1ccc(O)c([N+](=O)[O-])c1	lo
O=[N+]([O-])c1ccccc1O	lo
O=[N+]([O-])c1ccc(F)cc1O	lo
